Here the recorded LD50 at 168 h is given for each entry.
# TEST DETAILS: Acute toxicity test in mice, intraperitoneal
# CONDITION SET: mouse, in vivo, ip, 7 days observation

// known answers, use as guide
COMPOUND | MEASURED QUANTITY | RESULT
CCCCCC1C(C(=O)OC(C)C#Cc2cccnc2)=C(C)NC(c2ccc(-n3c(C)nc4cnccc43)cc2)=C1C(=O)OCC (stereo not drawn) | LD50 at 168 h | > 1000 mg/kg
CCOC(=O)C1=C(c2ccc(-n3ccnc3)cc2)NC(C)=C(C(=O)OCC#Cc2cccnc2)C1/C=C/c1ccccc1 (stereo not drawn) | LD50 at 168 h | > 1000 mg/kg

Proceeding to the next compound to report its LD50 at 168 h.
Asked: What value of measured LD50 at 168 h is listed for CCOC(=O)C1=C(c2ccc(-n3c(C)nc4cnccc43)cc2)NC(C)=C(C(=O)OCC#Cc2cccnc2)C1CCc1ccccc1 (stereo not drawn) ?
Given back: > 1000 mg/kg
